ASSAY EXPLANATION: Toxicity liver stage against HepG2, at 10uM
Assay type: cell-based
Design: test concentration 10 uM, cell line HepG2-A16-CD81EGFP
RUN PARAMETERS: human, HepG2-A16-CD81EGFP cells; read-out: INHIBITION
cytotoxicity at 10 µM by entry:
Kindly answer with a numeric value in %, unit omitted.

Please review the entries below; each comes with its answer.
INSERT INTO measurements (compound, observed) VALUES
  ('CCn1cnnc1CNC(=O)N1CCN(c2cccc(OC)c2)CC1', -8.62),
  ('CC(C)c1nc(C(=O)N(C)c2ccc(Br)cn2)cs1', 7.84);

--- query ---
If you can, please state the reported cytotoxicity at 10 µM value of CC(C)c1ncc2c(n1)CN(Cc1nc(-c3ccoc3)no1)CC2 .
-3

---

ASSAY EXPLANATION: Toxicity liver stage against HepG2, at 10uM
Assay type: cell-based
Design: test concentration 10 uM, cell line HepG2-A16-CD81EGFP
RUN PARAMETERS: human, HepG2-A16-CD81EGFP cells; read-out: INHIBITION
REPORTED PROPERTY: cytotoxicity at 10 µM (%)
Just the number please, in %, no unit attached.

Completed entries (count: 5):
INSERT INTO measurements (molecule, observed) VALUES
  ('CCc1cc(NCCCOC2CCN(C)CC2)ncn1', -8.34),
  ('Cc1cccnc1CN1CCN(C(=O)c2ccn(C(C)(C)C)c2)CC1', 11),
  ('CC(C)C(Sc1nnnn1C1CC1)C(=O)NCc1ccccc1 (configuration not stated)', -3.46),
  ('COCc1cncc2c1CCN(Cc1cnn(C)c1)C2', -0.287),
  ('CC(C)C(=O)N1CCCC2(CCCN2Cc2cccnc2)C1 (configuration not stated)', 5.22);

Bench note: what cytotoxicity at 10 µM did Cc1ccc(F)cc1S(=O)(=O)NCc1[nH]ncc1Br show?
10.3

What does the data say about its cytotoxicity at 10 µM? Entry: CC(=O)c1cccc(NC(=O)Cn2nc(-c3cccs3)oc2=O)c1
4.78

Query: cytotoxicity at 10 µM; subject: CC(C)Cc1nc(CN2CCC(N3CCN(C)C3=O)CC2)no1
14

Bench note: what cytotoxicity at 10 µM did Cc1cnn(CC2CCCCN2Cc2cc(C)on2)c1 (configuration not stated) show?
-5.36

What measured cytotoxicity at 10 µM goes with CC(C(=O)O)N1CCc2onc(-c3ccc(F)c(F)c3)c2C1 (configuration not stated) ?
14.9

Which cytotoxicity at 10 µM is listed for CC(C)COC[C@@H]1CC[C@H]2[C@H](CCN2C(=O)c2ccncc2F)O1 ?
-0.58

Entry under review: COC(=O)CCC(=O)N(C/C=C/c1ccccc1)CCO . Reported cytotoxicity at 10 µM?
3.28

---

ASSAY EXPLANATION: Toxicity liver stage against HepG2, at 10uM
Format: cell-based
Design: test concentration 10 uM, cell line HepG2-A16-CD81EGFP
RUN PARAMETERS: human, HepG2-A16-CD81EGFP cells; read-out: INHIBITION
The entries below are paired with their reported cytotoxicity at 10 µM.
Give the number; % is assumed, so skip it.

INSERT INTO results (compound, reported_property, observed) VALUES
  ('COc1ccc(CN2CCC[C@H]2c2nc(-c3cncnc3N)no2)cc1', 'cytotoxicity at 10 µM', -57),
  ('CC(NC(=O)Cn1cc(C(N)=O)c(-c2ccccc2)n1)C1CC1 (stereo unspecified)', 'cytotoxicity at 10 µM', -7.9),
  ('CSCC[C@@H]1CN2CCC[C@H]2CN1Cc1cn(C)nc1C', 'cytotoxicity at 10 µM', -11.3);

Sample CN(C)C(=O)CNC(CC(F)(F)F)c1ccc(Cl)cc1 (stereo unspecified) — what was its cytotoxicity at 10 µM?
-3.53

If you can, please state the reported cytotoxicity at 10 µM value of CC(CNC(=O)c1c[nH]nn1)Oc1cccc(Br)c1 (stereo unspecified) .
-10.3

// cytotoxicity at 10 µM lookup, key: N#CCSCCCN1CCN(C(=O)c2cccc(Cl)c2)CC1
-161

---

# cytotoxicity at 10 µM per entry
ASSAY EXPLANATION: Toxicity liver stage against HepG2, at 10uM
Format: cell-based
Design: test concentration 10 uM, cell line HepG2-A16-CD81EGFP
RUN PARAMETERS: human, HepG2-A16-CD81EGFP cells; read-out: INHIBITION
Give a bare numeral; the unit % is implied.

A selection of reference data follows.
INSERT INTO assay_data (compound, observed) VALUES
  ('Cc1nc2c(c(=O)[nH]1)CCN(C(=O)c1[nH]nc3c1CC(C)CC3)C2 (stereo unspecified)', 13.4),
  ('CN(C)c1nccc(-c2c[nH][nH]c2=O)n1', -1.25),
  ('Cc1cc(-c2c[nH]nc2C2CCCCN2C(=O)c2ccccc2)on1 (stereo unspecified)', 7.9),
  ('CN1CCC2(C=C(C(=O)N(C)C)c3ccccc32)CC1', -102),
  ('Cc1noc(C)c1CN1CCc2ncc(Cn3cccn3)n2CC1', 2.65);

Proceed to the following item.
Look up cytotoxicity at 10 µM for this compound: Cc1cc(NC(=O)N(C)C2CCCN(c3ccccc3)C2=O)n(C)n1 (stereo unspecified)
5.42

---

Each entry below lists one item and its recorded cytotoxicity at 10 µM value.
ASSAY EXPLANATION: Toxicity liver stage against HepG2, at 10uM
Assay type: cell-based
Design: test concentration 10 uM, cell line HepG2-A16-CD81EGFP
RUN PARAMETERS: human, HepG2-A16-CD81EGFP cells; read-out: INHIBITION
A number alone suffices; assume %.

INSERT INTO measurements (molecule, reported_property, observed) VALUES
  ('CN(C)Cc1nn(C)c2c1CN(C(=O)Nc1ccc(F)cc1)C2', 'cytotoxicity at 10 µM', 6.04),
  ('Cc1noc(C2CCCN(C(=O)c3ccc(N(C)C)nc3)C2)n1 (stereo unspecified)', 'cytotoxicity at 10 µM', -4.69),
  ('Cn1ccc(C(=O)N2C[C@@H]3CN(CC4CC4)CCO[C@@H]3C2)n1', 'cytotoxicity at 10 µM', 14.9);

What value of cytotoxicity at 10 µM has been reported for the following molecule? CN(C)Cc1nn(C)c2c1CN(C(=O)Nc1cccc(F)c1)C2
4.23

Can you look up the measured cytotoxicity at 10 µM of CS(=O)(=O)NCCC(=O)Nc1ccccc1N1CCc2ccccc21 for me?
11.9

Could you tell me which cytotoxicity at 10 µM is on file for COCCN1CCC(CNC(=O)Nc2ccc(F)c(Cl)c2)C1 (stereo unspecified) ?
2.59

---

ASSAY EXPLANATION: Toxicity liver stage against HepG2, at 10uM
Assay type: cell-based
Design: test concentration 10 uM, cell line HepG2-A16-CD81EGFP
RUN PARAMETERS: human, HepG2-A16-CD81EGFP cells; read-out: INHIBITION
Overview of reported cytotoxicity at 10 µM across a group of molecules:

Sample records with cytotoxicity at 10 µM:
INSERT INTO results (molecule, observed) VALUES
  ('COc1cc(OC)c(C2CC(=O)Oc3cc(C)[nH]c(=O)c32)c(OC)c1 (stereo not drawn)', '-6.24%'),
  ('O=C(NCc1ccccc1CN1CCCC1=O)Nc1nncs1', '-2.82%'),
  ('Cc1nc(C(F)(F)F)nc(N2CCC3(CC2)CC(C(=O)O)N(C)C3)c1C (stereo not drawn)', '-4.14%');

Which cytotoxicity at 10 µM reading was recorded for the molecule Cc1cccc(C2(C(=O)NCC(C)CN3CCCC3=O)CC2)c1 (stereo not drawn) ?
-0.89%

Could you share which cytotoxicity at 10 µM value was measured for O=C1CC2(CCN(c3nccc(-c4cc(C(=O)O)ccn4)n3)CC2)CN1 ?
2.16%

---

ASSAY EXPLANATION: Toxicity liver stage against HepG2, at 10uM
Assay type: cell-based
Design: test concentration 10 uM, cell line HepG2-A16-CD81EGFP
RUN PARAMETERS: human, HepG2-A16-CD81EGFP cells; read-out: INHIBITION
REPORTED PROPERTY: cytotoxicity at 10 µM (%)
All answers are understood in %, so give the number only.

INSERT INTO measurements (compound, reported_property, observed) VALUES
  ('Cn1cc(C2CCCN2CCC(=O)N2CCc3sccc3C2)cn1 (stereo unspecified)', 'cytotoxicity at 10 µM', -8.25),
  ('O=C(c1ccc(N2CCOCC2)cc1)N1CCCC(n2ccnc2)C1 (stereo unspecified)', 'cytotoxicity at 10 µM', -6.78);

Name the recorded cytotoxicity at 10 µM for Cc1nc(CN2CCN(CCCc3ccccc3)CC2)no1 .
11.7

Value lookup for cytotoxicity at 10 µM; key = CC(=O)N1CCC(NC(=O)N(C)Cc2c(C)noc2C)CC1
-6.33

Need cytotoxicity at 10 µM, item O=C(CSC1=NS(=O)(=O)c2cc(F)ccc2N1)Nc1ccc(Cl)cc1
8.93

Entry CCOC(=O)[C@@H]1[C@H]2CN(C(=O)OC)CCN2C[C@H]1c1ccccc1 : reported cytotoxicity at 10 µM = ?
6.72
